# test-system: UniProtKB A0ABX6CI93
# Sequence (A0ABX6CI93 22-409): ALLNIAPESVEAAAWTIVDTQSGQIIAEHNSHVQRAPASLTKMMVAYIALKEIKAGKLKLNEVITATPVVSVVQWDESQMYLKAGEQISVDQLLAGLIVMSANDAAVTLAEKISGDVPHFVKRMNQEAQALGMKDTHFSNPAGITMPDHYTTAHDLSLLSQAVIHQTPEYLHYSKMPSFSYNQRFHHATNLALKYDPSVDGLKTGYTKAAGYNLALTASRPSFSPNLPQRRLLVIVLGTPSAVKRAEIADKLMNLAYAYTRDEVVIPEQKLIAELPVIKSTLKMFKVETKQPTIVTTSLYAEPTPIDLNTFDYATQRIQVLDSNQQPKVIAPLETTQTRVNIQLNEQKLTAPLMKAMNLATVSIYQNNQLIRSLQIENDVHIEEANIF
# procedure-summary: Bocillin FL competition, SDS-PAGE fluorescence
# Type: binding
value-type: IC50 (µM)

Some entries whose results are on file:
# smiles-notation, measured-value
rows = [
    ("C[C@@H](O)[C@H]1C(=O)N2C(C(=O)O)=C(S[C@@H]3CN[C@H](CNS(N)(=O)=O)C3)[C@H](C)[C@H]12", 1.7),
    ("C[C@@H](O)[C@H]1C(=O)N2C(C(=O)O)=C(S[C@@H]3CN[C@H](C(=O)N(C)C)C3)[C@H](C)[C@H]12", 2.7),
    ("O=C(O)[C@H]1/C(=C/CO)O[C@@H]2CC(=O)N21", 5.8),
]

a: Cc1onc(-c2ccccc2)c1C(=O)N[C@@H]1C(=O)N2[C@@H]1SC(C)(C)[C@@H]2C(=O)O
b: NC(=O)c1cc[n+](CC2=C(C(=O)[O-])N3C(=O)[C@@H](NC(=O)[C@@H](c4ccccc4)S(=O)(=O)O)[C@H]3SC2)cc1
c: C=CC1=C(C(=O)O)N2C(=O)[C@@H](NC(=O)/C(=N\OCC(=O)O)c3csc(N)n3)[C@H]2SC1
d: CO/N=C(\C(=O)N[C@@H]1C(=O)N2C(C(=O)O)=C(COC(N)=O)CS[C@H]12)c1ccco1
Rank items: key IC50, increasing. Lab note: final answer is the ordered label list.
b, c, d, a
(b: 8.6 µM, c: 52.8 µM, d: 161 µM, a: 417 µM)

====

# test-system: sDacC (sPBP5/6) (Acinetobacter baumannii)
# Sequence (G1C735 20-367): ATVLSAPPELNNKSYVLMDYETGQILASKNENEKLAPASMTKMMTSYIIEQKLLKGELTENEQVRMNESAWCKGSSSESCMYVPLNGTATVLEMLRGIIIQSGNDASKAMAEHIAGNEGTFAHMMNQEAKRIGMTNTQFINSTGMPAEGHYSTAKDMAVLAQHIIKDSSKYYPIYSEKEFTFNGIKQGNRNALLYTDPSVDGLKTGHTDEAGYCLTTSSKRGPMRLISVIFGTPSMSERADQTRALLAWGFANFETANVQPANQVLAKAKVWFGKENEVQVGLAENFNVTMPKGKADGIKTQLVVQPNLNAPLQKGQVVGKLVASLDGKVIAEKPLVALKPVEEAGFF
# procedure-summary: Bocillin FL competition, SDS-PAGE fluorescence
# Format: binding
pIC50: −log10 of the molar value.
value-type: pIC50

1: Cc1onc(-c2ccccc2)c1C(=O)N[C@@H]1C(=O)N2[C@@H]1SC(C)(C)[C@@H]2C(=O)O
2: C[C@@H](O)[C@H]1C(=O)N2C(C(=O)O)=C(S[C@@H]3CN[C@H](C(=O)N(C)C)C3)[C@H](C)[C@H]12
Which value of pIC50 is smaller, the one for 1 or the one for 2 ? Identify your selection by its label.
1
(1: 4.02, 2: 4.80)

I: C=CC1=C(C(=O)O)N2C(=O)[C@@H](NC(=O)/C(=N\OCC(=O)O)c3csc(N)n3)[C@H]2SC1
II: NC(=O)c1cc[n+](CC2=C(C(=O)[O-])N3C(=O)[C@@H](NC(=O)[C@@H](c4ccccc4)S(=O)(=O)O)[C@H]3SC2)cc1
III: CO/N=C(\C(=O)N[C@@H]1C(=O)N2C(C(=O)O)=C(COC(N)=O)CS[C@H]12)c1ccco1
# desc sort on pIC50 across 3 compounds Lab note: final answer is the ordered label list.
II, III, I
(II: 5.20, III: 4.89, I: 4.68)
